System: T. cruzi Tulahuen CL2 (benznidazole-sensitive)
Assay: Antitrypanosomal activity, T. cruzi on MRC-5 cells
Format: cell-based, Trypanosoma cruzi
Conditions: Trypanosoma cruzi, TULAHUEN, MRC5, 168 h, pure compounds; 7 days
Known pIC50 of a selection of molecules
Formally, pIC50 is defined as -log10 of the concentration c, with c in mol/L.

Example results:
>  <Molecule>
C[C@@H]1CC[C@]2(C)CC[C@]3(C)C(=C[C@@H](O)C4[C@@]5(C)CC[C@H](O)C(C)(C)C5CC[C@]43C)C2[C@H]1C (stereo partly drawn) [Cmpd. 5, 3β,11α-Dihydroxyurs-12-ene]

>  <pIC50>
5.09

$$$$
>  <Molecule>
O=C(Cn1ccnc1[N+](=O)[O-])NCc1ccccc1 [Benznidazole, reference compound]

>  <pIC50>
5.72

$$$$

Next, consider the following molecule.
State the recorded pIC50 for this entry: C[C@H]1[C@H](C)CC[C@]2(C(=O)O)CC[C@]3(C)C(=CC[C@@H]4[C@@]5(C)CC[C@H](O)C(C)(C)[C@@H]5CC[C@]43C)[C@H]12 [Cmpd. 3, 3β-hydroxy-urs-12-en-28-oic acid]
5.06
